# MEASURED ON: LftR K56A (Listeria monocytogenes, UniProt Q8Y923 1-108, K56A)
# TEST: fluorescence polarization; FP: 28-mer OP-1 with 5' fluorescein, ex 485 nm / em 535 nm, single-site fit (Prism 5); buffer, salt, pH and temperature of FP and EMSA not given in the material
# CONDITION DETAILS: protein: recombinant; tags: C-terminal His6; chain copies: 2; label: 5' fluorescein on top strand
ENDPOINT: pKd
# pKd = -log10(concentration in molar units)

Please report the recorded pKd for OP-1 28-mer dsDNA (FP) (dsDNA) DNA 1: GTATTACTATATACTTGTACCTAGTAAC DNA 2: GTTACTAGGTACAAGTATATAGTAATAC .
7.54
